Origin of values: PubChem BioAssay (NCI)

- Tested on: MDA-MB-435
- Assay Overview: NCI tumour cell line growth inhibition, 48 h
Readout: TGI

Q: What value of measured TGI is listed for COc1cccc(N2C(=O)C3c4[nH]c5ccccc5c4C4CCCC4C3C2=O)c1 (centres undefined) ?
Result: > 10 µM

Q: Given the compound O=C1C[C@@H](C(=O)OCc2ccccc2)NC(=O)C[C@@H](C(=O)OCc2ccccc2)NC(=O)C[C@@H](C(=O)OCc2ccccc2)N1 , what is its reported TGI?
Result: > 100 µM

Q: Endpoint output: TGI of CC1(C)N/C(=C\C=O)C(C)(C)N1O . Value?
Result: > 100 µM

Next, consider the following compound.
Q: What value of TGI has been reported for the following compound? Nc1ncnc2c1N=C(c1ccc3c(c1)OCO3)CC(c1ccc([N+](=O)[O-])cc1)N2 (centres undefined)
Result: > 100 µM

====

- System: RPMI-8226 leukemia
- Assay Overview: NCI tumour cell line growth inhibition, 48 h
Readout: TGI

Q: Query: TGI; subject: COC(=O)C1CCC(=S)N1C(=O)c1ccccc1 (stereo not drawn)
Result: > 100 µM

Q: Which TGI value belongs to O=C1C[C@@H](C(=O)OCc2ccccc2)NC(=O)C[C@@H](C(=O)OCc2ccccc2)NC(=O)C[C@@H](C(=O)OCc2ccccc2)N1 ?
Result: > 100 µM

Switching to the query record.
Q: Fill in the blank: the reported TGI of CCOC(C[C@H](O[Si](C)(C)C(C)(C)C)[C@H]1COC(=S)S1)OCC is ____.
Result: > 100 µM

====

- Tested on: MALME-3M melanoma
- Assay Overview: NCI tumour cell line growth inhibition, 48 h
Reported TGI values for the following compounds.

Example compounds with recorded TGI:
Q: Entry under review: CC(=O)[CH-]C(=O)c1ccccc1.CC(=O)[CH-]C(=O)c1ccccc1.CC[O-].CC[O-].[Hf+4] . Reported TGI?
Result: > 100 µM

Q: Which TGI is reported for this compound? COc1cc2c[n+](C)c3c4cc(OC)c(OC(C)C)cc4ccc3c2cc1OC
Result: > 100 µM

More entries:
Q: Give its TGI value. Item: CCOC(=O)c1nc2ccc(C(F)(F)F)cc2nc1Oc1cc(OC)c(OC)c(OC)c1
Result: > 100 µM

Q: Please give the measured TGI for this compound: Cc1cc(C)nc(SC2=C(Nc3ccc(C)c(Cl)c3)C(=O)N(Cc3ccccc3)C2=O)n1
Result: > 160 µM

Q: What does the record list as TGI for Cc1ccc(S(=O)(=O)c2c(COC(=O)c3cccc(C)c3)c(-c3ccccc3)nn2C)cc1 ?
Result: > 100 µM

====

The following compounds are listed with their measured TGI values.
- System: HCC-2998 colon
- Assay Overview: NCI tumour cell line growth inhibition, 48 h

Reference set (5 entries):
Q: Which value of TGI has been reported for Cc1ccc(S(=O)(=O)n2c3ccc(Br)cc3c3nc4ccccc4nc32)cc1 in the records?
Result: > 100 µM

Q: Which TGI value is on record for O=C1C[C@@H](C(=O)OCc2ccccc2)NC(=O)C[C@@H](C(=O)OCc2ccccc2)NC(=O)C[C@@H](C(=O)OCc2ccccc2)N1 ?
Result: > 100 µM

Q: // query TGI value for entry CN(C)c1nc(N)nc(CS)n1
Result: > 100 µM

Q: Look up TGI: Cc1ccc(OCC2OC(n3cnc4c(Cl)nc(N)nc43)CC2Oc2ccc(C)cc2)cc1 (centres undefined)
Result: > 57.4 µM

Q: Data request, read-out TGI, for NCCCC[C@@H]1NC(=O)[C@H]2CCCN2C(=O)[C@H](Cc2ccccc2)CNC(=O)[C@H](Cc2ccccc2)NC1=O
Result: > 37.5 µM

Next:
Q: What value of TGI has been reported for the following compound? Cc1cc(C)nc(SC2=C(Nc3ccc(C)c(Cl)c3)C(=O)N(Cc3ccccc3)C2=O)n1
Result: > 160 µM

Q: Query: TGI; subject: COC(=O)C1CCC(=S)N1C(=O)c1ccccc1 (centres undefined)
Result: > 100 µM

Q: I have this compound here, COc1cc2c[n+](C)c3c4cc(OC)c(OC(C)C)cc4ccc3c2cc1OC , and I need its recorded TGI.
Result: > 100 µM

Q: So what does the record say about TGI for O=C1C(c2ccccc2)=C(O)c2cccc3cccc1c23 ?
Result: > 100 µM

====

// reported TGI for each item listed
- Test system: IGROV1 ovarian
- Assay Overview: NCI tumour cell line growth inhibition, 48 h

Q: Returns the measured TGI for the input compound. Input: Cc1ccccc1C1OC(=O)c2ccc3ccccc3c21 (stereo unspecified)
Result: > 31.6 µM

***
Q: What does the record list as TGI for CCNC(=S)N=Nc1c(O)[nH]c2ccc([N+](=O)[O-])cc12 ?
Result: > 100 µM

Q: Need TGI of N/N=C(/C(=O)Nc1cccc(Cl)c1)C(C(=O)c1ccc(O)cc1O)C1OC(=O)c2ccccc21 (stereo unspecified) , thanks.
Result: > 100 µM

Q: Entry under review: COc1c(O)c(C=O)c2c(O)c(-c3c(C)cc4c(C(C)C)c(OC)c(O)c(C=O)c4c3O)c(C)cc2c1C(C)C . Reported TGI?
Result: 18.5 µM

Q: For the compound shown here, O=C(c1ccc(Cl)cc1Cl)C1[C@H]2C(=O)N(c3ccc(Cc4ccc(N5C(=O)[C@@H]6ON(c7ccccc7)C(C(=O)c7ccc(Cl)cc7Cl)[C@@H]6C5=O)cc4)cc3)C(=O)[C@H]2ON1c1ccccc1 (stereo partly specified) , give the reported TGI.
Result: > 50 µM

Q: Looking for the measured TGI of Cn1ncnc1[C@H]1c2n[nH]c(=O)c3cc(F)cc(c23)N[C@@H]1c1ccc(F)cc1 , can you help?
Result: > 100 µM

Q: May I ask what TGI has been recorded for COC1CC(O[C@H]2CC[C@@]3(C)[C@H](CC[C@@H]4[C@@H]3CC[C@]3(C)[C@@H](C5=CC(=O)OC5)[C@@H](OC(C)=O)C[C@]43O)C2)OC(C)C1O (stereo partly specified) ?
Result: < 0.01 µM

Q: Name the reported TGI value associated with the compound CC(C)(C)C(=O)OCC1C(=O)OCC1C(=O)N1Cc2cc3ccccc3nc2C1 (stereo unspecified)
Result: 29.1 µM

Q: For O=C1C(Cl)=C(OCCCl)C(=O)c2c(O)ccc(O)c21 , what is its reported TGI?
Result: 19.7 µM

Q: Dear colleague, I am looking for the recorded TGI of the following compound: O=S(Nc1ccccc1)c1ccc(N2CCOCC2)cc1 (stereo unspecified)
Result: > 100 µM

Q: Sample COc1cc(OC)c(C/C=C/c2ccccc2)cc1O — what was its TGI?
Result: 29.9 µM

====

- Tested on: CCRF-CEM leukemia
- Assay Overview: NCI tumour cell line growth inhibition, 48 h
Measured TGI of individual entries

Q: Find the recorded TGI belonging to CCOc1ccc(N/C(=C(/C(Cl)=C(/Cl)N(CC)CC)[N+](=O)[O-])n2nnc3ccccc32)cc1 and report it.
Result: > 100 µM

Q: May I ask what TGI has been recorded for COc1ccc(CCN2CC=Cn3c2nc2ccccc2c3=O)cc1 ?
Result: > 100 µM

Q: Can you share its TGI? I mean this compound: OC1(C23CC4CC(CC(C4)C2)C3)CSCC1(O)C12CC3CC(CC(C3)C1)C2 (configuration not stated)
Result: > 10 µM

Q: What value of TGI has been reported for the following compound? CC(C)CCCC(C)[C@H]1CCC2[C@@H]3CCC4Cc5nc6c(nc5C[C@]4(C)C3CC[C@@]21C)CC1CC[C@@H]2C(CC[C@@]3(C)C2CC[C@@H]3C(C)CCCC(C)C)[C@@]1(C)C6 (some centres not stated)
Result: > 100 µM

====

Each entry below lists one item and its recorded TGI value.
- System: RPMI-8226 leukemia
- Assay Overview: NCI tumour cell line growth inhibition, 48 h

Previously resolved entries follow.
Q: What value of TGI has been reported for the following compound? Cc1ccc2c(c1)-c1c3c(nn1-c1ccccc1)-c1ccccc1SC3O2 (stereo not drawn)
Result: > 100 µM

Q: Tell me the measured TGI of Cc1ccc(OCC2OC(n3cnc4c(Cl)nc(N)nc43)CC2Oc2ccc(C)cc2)cc1 (stereo not drawn) , please.
Result: > 100 µM

***
Q: Value lookup for TGI; key = NC(=O)N/N=C1/CCC(O)CC1CC(=O)O (stereo not drawn)
Result: > 100 µM

====

Measured TGI, listed per entry.
- Test system: HCT-116 colon
- Assay Overview: NCI tumour cell line growth inhibition, 48 h
Respond numerically; units are µM and should not be typed.

Q: # input compound: COc1cc2nc(N3CCCC3)nc(NCc3ccccc3)c2cc1OC ; wanted: its TGI
Result: 4.12

Proceeding to the next compound to report its TGI.
Q: Entry O=C1CCCCC/C1=C\c1ccc([N+](=O)[O-])cc1 : reported TGI = ?
Result: 57.6
